Target: human FPR2 receptors (Homo sapiens, UniProt P25090)
Sequence (P25090 whole entry): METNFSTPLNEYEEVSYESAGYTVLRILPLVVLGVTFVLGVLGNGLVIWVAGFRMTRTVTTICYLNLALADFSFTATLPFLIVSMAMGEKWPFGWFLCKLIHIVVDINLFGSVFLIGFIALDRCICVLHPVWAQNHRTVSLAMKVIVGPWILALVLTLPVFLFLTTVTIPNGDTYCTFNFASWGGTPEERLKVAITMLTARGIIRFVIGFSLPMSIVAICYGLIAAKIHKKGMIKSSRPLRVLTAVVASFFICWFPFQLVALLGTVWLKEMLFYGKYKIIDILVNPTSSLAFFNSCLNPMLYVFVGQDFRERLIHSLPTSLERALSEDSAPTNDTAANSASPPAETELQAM
Assay: FPR2 cAMP assay in CHO cells overexpressing human FPR2 (HTRF)
Format: cell-based
Details: hFPR2 assay; potency bins; read-out: hFPR2 agonist activity EC50
Experimental: N-formyl peptide receptors (FPRs) are a family of chemo attractant receptors that facilitate leukocyte response during inflammation. FPRs belong to the seven-transmembrane G protein-coupled receptor superfamily and are linked to inhibitory G-proteins (Gi). […] FPR2 and FPR1 Cyclic Adenosine Monophosphate (cAMP) Assays. […] The level of intracellular cAMP was determined using the HTRF HiRange cAMP assay reagent kit (Cisbio) according to manufacturer's instruction. […]
The following compounds are listed with their measured EC50 values.
test.readout: EC50

>>> observed_measurement("COc1cc(F)c([C@@H]2CNC(=O)[C@H]2Nc2nnc(-c3ccc(Oc4ccc(Cl)cc4)cc3)o2)c(F)c1")
"≤ 40 nM"
>>> observed_measurement("COc1cc(F)c([C@@H]2CNC(=O)[C@H]2Nc2nnc(-c3ccc(Oc4cccc(F)n4)cc3)o2)c(F)c1")
"≤ 40 nM"
>>> observed_measurement("COc1cc(F)c([C@@H]2CNC(=O)[C@H]2Nc2nnc(-c3ccc(Oc4cnccn4)cc3)o2)c(F)c1")
"40 to 150 nM"
>>> observed_measurement("COc1cc(F)c([C@@H]2CNC(=O)[C@H]2Nc2nnc(-c3ccc(SC(F)(F)F)cc3)s2)c(F)c1")
"40 to 150 nM"
>>> observed_measurement("COc1cc(F)c([C@@H]2CNC(=O)[C@H]2Nc2nnc(-c3ccc(C(F)(F)F)nc3)o2)c(F)c1")
"≤ 40 nM"
>>> observed_measurement("COc1cc(F)c([C@@H]2CNC(=O)[C@H]2Nc2nnc(-c3ccc(Oc4ccc(C#N)cc4)cc3)o2)c(F)c1")
"40 to 150 nM"
>>> observed_measurement("COc1cc(F)c([C@@H]2CNC(=O)[C@H]2Nc2nnc(C(=O)NCc3ccc(Cl)cc3)o2)c(F)c1")
"40 to 150 nM"
>>> observed_measurement("COc1cc(F)c([C@@H]2CNC(=O)[C@H]2Nc2nnc(-c3ccc(Oc4cc(OC)ncn4)cc3)o2)c(F)c1")
"40 to 150 nM"
>>> observed_measurement("COc1cc(F)c([C@@H]2CNC(=O)[C@H]2Nc2nnc(-c3ccc(Oc4ncccc4C#N)cc3)o2)c(F)c1")
"40 to 150 nM"
>>> observed_measurement("COc1cc(F)c([C@@H]2CNC(=O)[C@H]2Nc2nnc(-c3ccc(Oc4cc(C#N)ccn4)cc3)o2)c(F)c1")
"40 to 150 nM"
>>> observed_measurement("CCCCOc1ccc(-c2nnc(N[C@@H]3C(=O)NC[C@H]3c3c(F)cc(OC)cc3F)o2)cc1")
"40 to 150 nM"
>>> observed_measurement("COc1cc(F)c([C@@H]2CNC(=O)[C@H]2Nc2nnc(C3CCC(F)(F)CC3)o2)c(F)c1")
"150 to 1000 nM"
>>> observed_measurement("COc1cc(F)c([C@@H]2CNC(=O)[C@H]2Nc2cc(-c3ccc(OC(F)(F)F)cc3)on2)c(F)c1")
"≤ 40 nM"
>>> observed_measurement("COc1cc(F)c([C@@H]2CNC(=O)[C@H]2Nc2nnc(C(=O)NCCc3ccc(Cl)cc3)o2)c(F)c1")
"150 to 1000 nM"
>>> observed_measurement("COc1cc(F)c([C@@H]2CNC(=O)[C@H]2Nc2nnc(-c3ccc(C)cc3)o2)c(F)c1")
"150 to 1000 nM"

Values were extracted from patent US12281108B2.
